FYI, the data here is from patent US9345247B2.

Test system: green peach aphid (Myzus persicae)
PROTOCOL_NOTES: Myzus persicae spray test (MYZUPE)
Format: in vivo
SETUP_CONDITIONS: 100 g/ha, after 6 days
efficacy listing for selected compounds.
ENDPOINT_LABEL: efficacy

> print(dat)
                                   compound  endpoint.label  assay.result
1  CCn1c(C(=O)NC(c2ccc(F)c(Cl)c2)C(F)(F)F)cc2cc(C(=O)NC3(C#N)CC3)c(C)nc21 (stereo not drawn) [Compound 10]        efficacy           90%
2  CCn1c(C(=O)NC(c2ccc(F)c(C(F)(F)F)c2)C(F)(F)F)cc2cc(C(=O)NC3(C#N)CC3)c(C)nc21 (stereo not drawn) [Compound 75]        efficacy           90%
3  CCn1c(C(=O)NC(c2cccc(C(F)(F)F)c2)C(F)(F)F)cc2cc(C(=O)NC3(C#N)CC3)c(Cl)nc21 (stereo not drawn) [Compound 11]        efficacy          100%
4  CCn1c(C(=O)NC(c2ccc(F)c(Cl)c2)C(F)(F)F)cc2cc(C(=O)NC3(C#N)CC3)c(Cl)nc21 (stereo not drawn) [Compound 26]        efficacy          100%
5  CCn1c(C(=O)NC(c2cccc(C(F)(F)F)c2)C(F)(F)F)cc2cc(C(=O)NC3CCC3)c(Cl)nc21 (stereo not drawn) [Compound 15]        efficacy           90%
6  CCn1c(C(=O)NC(c2cccc(C(F)(F)F)c2)C(F)(F)F)cc2cc(C(=O)NC3(C#N)CC3)c(C)nc21 (stereo not drawn) [Compound 6]        efficacy          100%
